- tested.on: Glycogen synthase kinase-3 beta (Homo sapiens)
- experimental.setup: Compound concentration 20.0 uM
- Description: Thermal Shift Assay. Domain: start/stop: M26-R383
Residues, ends and D or L forms follow the SMILES beside them. *: point of attachment. CH2Cl = ClC*
assay.readout: ΔTm (°C)
Numbers only here, please. The scale is °C.

Example entries begin here.
compound: COc1cc2c(cc1OC)[C@H]1C[C@@H](O)[C@H](CC(C)C)CN1CC2
ΔTm / °C: -0.88
--
compound: Cc1cc(C)cc(Oc2ccc(CNC(=O)[C@H](C)N)cc2C)c1
ΔTm / °C: -1.22
--
compound: CC(=O)N[C@@H](CC(C)C)C(=O)N[C@@H](CCC(=O)O)C(=O)N[C@@H](Cc1cnc[nH]1)C(=O)N[C@@H](CC(=O)O)C(=O)CCl (Ac-LEHD-CH2Cl)
ΔTm / °C: 0.91

Reading of ΔTm for COc1ccc(C(=O)N[C@H](C(=O)N2CCC[C@H]2C(=O)N[C@H](C(=O)C(F)(F)F)C(C)C)C(C)C)cc1 with Glycogen synthase kinase-3 beta (Homo sapiens): -0.75

Reading of ΔTm for CCCCN(Cc1ccc(C(=O)NO)cc1)C(=O)Nc1ccccc1 with Glycogen synthase kinase-3 beta (Homo sapiens): -0.89

Reading of ΔTm for CCC[C@H]1CNCc2c1[nH]c(=O)c(C#N)c2N1CCC2(CC1)CC2 with Glycogen synthase kinase-3 beta (Homo sapiens): -0.31

Reading of ΔTm for Cc1nn(CC(F)(F)F)cc1Nc1ncc(Br)c(NCc2ccc(S(N)(=O)=O)cc2)n1 with Glycogen synthase kinase-3 beta (Homo sapiens): -0.15

* * *

- tested.on: Casein kinase I isoform delta (Homo sapiens) (UniProt P48730)
- Sequence (P48730 whole entry, looked up, canonical isoform): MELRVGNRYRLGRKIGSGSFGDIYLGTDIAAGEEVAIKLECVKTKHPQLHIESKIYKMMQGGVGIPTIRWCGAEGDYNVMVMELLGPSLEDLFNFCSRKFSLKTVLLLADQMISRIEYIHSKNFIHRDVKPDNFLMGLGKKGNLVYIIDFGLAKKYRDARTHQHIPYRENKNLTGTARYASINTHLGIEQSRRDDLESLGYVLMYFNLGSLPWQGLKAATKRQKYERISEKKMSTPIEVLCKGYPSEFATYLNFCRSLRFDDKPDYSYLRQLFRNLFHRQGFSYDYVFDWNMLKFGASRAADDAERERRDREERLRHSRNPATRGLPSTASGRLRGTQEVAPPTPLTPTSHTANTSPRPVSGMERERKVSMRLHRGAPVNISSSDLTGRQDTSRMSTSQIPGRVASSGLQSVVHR
- experimental.setup: Compound concentration 20.0 uM
- Description: Thermal Shift Assay. Domain: start/stop: M1-K294
assay.readout: ΔTm (°C)
Numbers only here, please. The scale is °C.

Example entries begin here.
smiles.input: CS(=O)(=O)c1ccc(Oc2cc(F)cc(C#N)c2)c2c1[C@H](O)C(F)(F)C2
ΔTm, °C: -0.1
//
smiles.input: OC[C@H]1O[C@@H](c2ccc(F)c(Cc3cc4ccccc4s3)c2)[C@H](O)[C@@H](O)[C@@H]1O
ΔTm, °C: -0.29
//
smiles.input: Oc1ccc(-c2c(-c3ccccc3)nn3c(C(F)(F)F)cc(C(F)(F)F)nc23)cc1
ΔTm, °C: 0.39
//
smiles.input: COc1ccc(OC)c(-c2nnc3n2N=C(c2ccc(OC)c(OC)c2)CS3)c1
ΔTm, °C: -0.07

Reported ΔTm for CC(C)(CNC(=O)c1cccc(-c2noc(C(F)(F)F)n2)c1)c1coc(-c2ccccc2)n1 was 0.45

* * *

- tested.on: Bromodomain-containing protein 4 (Homo sapiens)
- experimental.setup: Compound concentration 20.0 uM
assay.readout: ΔTm (°C)
Numbers only here, please. The scale is °C.

Example entries begin here.
compound: CS(=O)(=O)N1CCN(C(=O)c2cnc3ccc(F)cc3c2N2CCC(C#N)(c3ccccc3)CC2)CC1
val: -2.17
//
compound: Cn1ncc(-c2nn(C)c3ncnc(N4CCC4)c23)c1-c1ccc(C(F)(F)F)cc1
val: -2.92

Would you kindly look at the next entry?
Reported ΔTm for COc1cc(Cl)ccc1C1=CN(c2ccc(-c3ccccc3OC)cc2)C2=NCCCN12 was -3.63

* * *

- tested.on: Cyclin-dependent kinase 2 (Homo sapiens) (UniProt P24941)
- experimental.setup: Compound concentration 20.0 uM
- Description: Thermal Shift Assay. Domain: start/stop: M1-L298
assay.readout: ΔTm (°C)
Numbers only here, please. The scale is °C.

molecule: CCCN1CCN(c2ccc(C(=O)NC3(C(=O)NCC#N)CCCCC3)cc2)CC1
unit.of.measure: °C
ΔTm: 0.57

molecule: CC(C)(C)OC(=O)N1CCN(C(=O)n2cc(-c3ccc(OC(F)(F)F)cc3)nn2)C(Cc2ccccc2)C1 (stereo not given)
unit.of.measure: °C
ΔTm: 0.53

molecule: CCS(=O)(=O)N1CC(CC#N)(n2cc(-c3ncnc4[nH]ccc34)cn2)C1
unit.of.measure: °C
ΔTm: 0.85

Reported ΔTm for CCc1c(C#N)c(S[C@@H](C(N)=O)c2ccccc2)nc(N(C)C)c1C#N was 0.24

Reported ΔTm for CN(C)CCCNC(=O)c1ccc(-c2cc(O)c3ncccc3c2)cc1 was 0.45

Numbers sourced from ChEMBL document CHEMBL5724796.
